Measured koff, listed per entry.
- Experimental System: T1, N(A2B2)A-avi-His (biotinylated at the avi tag)
- T1 construct: also called biotinylated N(A2B2)A-avi-His
- T1 chain: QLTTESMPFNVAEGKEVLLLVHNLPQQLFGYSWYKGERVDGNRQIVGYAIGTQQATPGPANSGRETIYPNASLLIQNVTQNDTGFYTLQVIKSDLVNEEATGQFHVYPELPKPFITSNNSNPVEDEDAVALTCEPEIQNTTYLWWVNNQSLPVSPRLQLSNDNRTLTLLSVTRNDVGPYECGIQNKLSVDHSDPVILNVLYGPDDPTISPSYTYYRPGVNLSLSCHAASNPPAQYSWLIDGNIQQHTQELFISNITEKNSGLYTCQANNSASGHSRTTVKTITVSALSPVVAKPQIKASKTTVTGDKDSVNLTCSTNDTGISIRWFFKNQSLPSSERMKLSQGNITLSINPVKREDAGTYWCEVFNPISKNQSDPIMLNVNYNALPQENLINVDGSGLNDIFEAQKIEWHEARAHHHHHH
- Protocol Summary: SPR, ProteOn, antigen on NLC chip, purified Fab as analyte
Provide only the numeric value, understood in s⁻¹.

Sample P005.097 Fab (Fab, V domains shown, Fab from E. coli) VH: EVQLLESGGGLVQPGGSLRLSCAASGFTFTDYYMNWVRQAPGKGLEWLGFIGNKANAYTTEYSASVKGRFTISRDKSKNTLYLQMNSLRAEDTATYYCTRDRGLRFSFDYWGQGTTVTVSS VL: EIVLTQSPATLSLSPGERATLSCRASSSVTYIHWYQQKPGQAPRSWIYATSNLASGIPARFSGSGSGTDFTLTISSLEPEDFAVYYCQHWSSQPPTFGQGTKLEIK — what was its koff?
8.54e-05
